Assay: Plasma, brain and CSF pharmacokinetics and brain tissue accumulation in mice (LC-MS/MS)
Assay type: in vivo, male C57BL/6 mice
Details: male, C57BL/6, mouse, plasma, oral, 5 mg/kg, 5 mg/kg oral; time point 2.00 h; read-out: Mean Plasma Conc.
PROPERTY_NAME: concentration at 2 h

| COMPOUND | READING |
| --- | --- |
| Cc1c(N[S+](=O)(O)c2c(Cl)cc(-c3ccnc(N4CCNCC4)c3)cc2Cl)c(CC(C)C)nn1C [PCLX-001] | 7.04 µM |

* * *

Test: Plasma pharmacokinetics in phase I clinical trial NCT04836195 (oral daily dose)
Assay type: in vivo, human
Conditions: human, plasma, oral, 140 mg, plasma; 140 mg; Cycle 1 D1; read-out: t½ (mean, SD) (converted)
PROPERTY_NAME: half-life (h)

| SMILES_DATA | PROPERTY_NAME | READING |
| --- | --- | --- |
| Cc1c(N[S+](=O)(O)c2c(Cl)cc(-c3ccnc(N4CCNCC4)c3)cc2Cl)c(CC(C)C)nn1C | half-life | 7.2 |

* * *

Assay: Plasma, brain and CSF pharmacokinetics and brain tissue accumulation in mice (LC-MS/MS)
Assay type: in vivo, male C57BL/6 mice
Conditions: male, C57BL/6, mouse, brain, oral, 5 mg/kg, 5 mg/kg oral; time point 8.00 h; individual animals; read-out: Brain Conc.
PROPERTY_NAME: concentration at 8 h (nM)

| SMILES_DATA | READING |
| --- | --- |
| Cc1c(N[S+](=O)(O)c2c(Cl)cc(-c3ccnc(N4CCNCC4)c3)cc2Cl)c(CC(C)C)nn1C | 79.3 |

* * *

Test: Plasma pharmacokinetics in phase I clinical trial NCT04836195 (oral daily dose)
Assay type: in vivo, human
Settings: human, plasma, oral, 140 mg, plasma; 140 mg; Cycle 1 D15; read-out: AUC0-24 (mean, SD)
PROPERTY_NAME: AUC(0-t) (ng·h/mL)

| SMILES_DATA | READING |
| --- | --- |
| Cc1c(N[S+](=O)(O)c2c(Cl)cc(-c3ccnc(N4CCNCC4)c3)cc2Cl)c(CC(C)C)nn1C | 8150 |

* * *

Assay: Plasma pharmacokinetics in phase I clinical trial NCT04836195 (oral daily dose)
Assay type: in vivo, human
Conditions: human, plasma, oral, 100 mg, plasma; 100 mg; Cycle 1 D15; read-out: Cmax (mean, SD)

| COMPOUND | MEASUREMENT_UNIT | Cmax |
| --- | --- | --- |
| Cc1c(N[S+](=O)(O)c2c(Cl)cc(-c3ccnc(N4CCNCC4)c3)cc2Cl)c(CC(C)C)nn1C [PCLX-001] | ng/mL | 2300 |

* * *

Assay: Plasma, brain and CSF pharmacokinetics and brain tissue accumulation in mice (LC-MS/MS)
Format: in vivo, male C57BL/6 mice
Details: male, C57BL/6, mouse; oral gavage 5 mg/kg; Plasma

| COMPOUND | bioavailability |
| --- | --- |
| Cc1c(N[S+](=O)(O)c2c(Cl)cc(-c3ccnc(N4CCNCC4)c3)cc2Cl)c(CC(C)C)nn1C [PCLX-001] | 97% |

* * *

Assay: Plasma, brain and CSF pharmacokinetics and brain tissue accumulation in mice (LC-MS/MS)
Assay type: in vivo, male C57BL/6 mice
Details: male, C57BL/6, mouse; oral gavage 5 mg/kg; CSF
PROPERTY_NAME: AUC(0-t) (µM·h)

| SMILES_DATA | MEASUREMENT_UNIT | READING |
| --- | --- | --- |
| Cc1c(N[S+](=O)(O)c2c(Cl)cc(-c3ccnc(N4CCNCC4)c3)cc2Cl)c(CC(C)C)nn1C | µM·h | 0.166 |
